# reported LD50; entries follow
assay: acute oral toxicity test, LD50 by improved karber method; conditions: per os, gavaged once, in 0.2% sodium carboxymethylcellulose; observed 7 days
measured property: LD50 (mg/kg)

[[record]]
molecule = "CCCN1C[C@H](C)[C@@H](O)[C@](C)(O)[C@@H](CC)OC(=O)[C@H](C)[C@@H](O[C@H]2C[C@@](C)(OC)[C@@H](O)[C@H](C)O2)[C@H](C)[C@@H](O[C@@H]2O[C@H](C)C[C@H](N(C)C)[C@H]2O)[C@](C)(O)C[C@H]1C [Gamithromycin, reference compound]"
measured_property = "LD50"
recorded_result = 2165.2

[[record]]
molecule = "CCCNC[C@]1(O)[C@H](C)O[C@@H](O[C@H]2[C@H](C)[C@@H](O[C@@H]3O[C@H](C)C[C@H](N(C)C)[C@H]3O)[C@](C)(O)C[C@@H](C)N(CCC)C[C@H](C)[C@@H](O)[C@](C)(O)[C@@H](CC)OC(=O)[C@@H]2C)C[C@@]1(C)OC"
measured_property = "LD50"
recorded_result = 3760.6

[[record]]
molecule = "CCCNC[C@]1(O)[C@H](C)O[C@@H](O[C@H]2[C@H](C)[C@@H](O[C@@H]3O[C@H](C)C[C@H](N(C)C)[C@H]3O)[C@](C)(O)C[C@@H](C)CN[C@H](C)[C@@H](O)[C@](C)(O)[C@@H](CC)OC(=O)[C@@H]2C)C[C@@]1(C)OC [Tulathromycin, reference compound]"
measured_property = "LD50"
recorded_result = 2379.2

[[record]]
molecule = "CCCNC[C@]1(O)[C@H](C)O[C@@H](O[C@H]2[C@H](C)[C@@H](O[C@@H]3O[C@H](C)C[C@H](N(C)C)[C@H]3O)[C@](C)(O)C[C@@H](C)NC[C@H](C)[C@@H](O)[C@](C)(O)[C@@H](CC)OC(=O)[C@@H]2C)C[C@@]1(C)OC"
measured_property = "LD50"
recorded_result = 2584.8


---

# reported MIC values, Actinobacillus pleuropneumoniae CVCC262; entries follow
test system: Actinobacillus pleuropneumoniae CVCC262; assay: in vitro susceptibility, MIC by mini broth dilution; format: cell-based; conditions: strain CVCC262
measured property: MIC values, Actinobacillus pleuropneumoniae CVCC262 (ug/mi)

[[record]]
compound = "CCCN1C[C@H](C)[C@@H](O)[C@](C)(O)[C@@H](CC)OC(=O)[C@H](C)[C@@H](O[C@H]2C[C@@](C)(OC)[C@](O)(CNN3CCCCC3)[C@H](C)O2)[C@H](C)[C@@H](O[C@@H]2O[C@H](C)C[C@H](N(C)C)[C@H]2O)[C@](C)(O)C[C@H]1C [syzx-206]"
unit_annotation = "ug/mi"
recorded_result = 0.25

[[record]]
compound = "CCCN1C[C@H](C)[C@@H](O)[C@](C)(O)[C@@H](CC)OC(=O)[C@H](C)[C@@H](O[C@H]2C[C@@](C)(OC)[C@](O)(CNc3cccnc3Cl)[C@H](C)O2)[C@H](C)[C@@H](O[C@@H]2O[C@H](C)C[C@H](N(C)C)[C@H]2O)[C@](C)(O)C[C@H]1C [syzx-218]"
unit_annotation = "ug/mi"
recorded_result = 4

[[record]]
compound = "CC[C@H]1OC(=O)[C@H](C)[C@@H](OC2CC(C)(OC)C(O)(CNC(C)CC(=O)O)C(C)O2)[C@H](C)[C@@H](O[C@@H]2O[C@H](C)C[C@H](N(C)C)[C@H]2O)[C@](C)(O)C[C@@H](C)NC[C@H](C)[C@@H](O)[C@]1(C)O (stereo partly shown) [syzx-50]"
unit_annotation = "ug/mi"
recorded_result = 0.5

[[record]]
compound = "CCCN1C[C@H](C)[C@@H](O)[C@](C)(O)[C@@H](CC)OC(=O)[C@H](C)[C@@H](O[C@H]2C[C@@](C)(OC)[C@](O)(CNCc3ccc(F)cc3F)[C@H](C)O2)[C@H](C)[C@@H](O[C@@H]2O[C@H](C)C[C@H](N(C)C)[C@H]2O)[C@](C)(O)C[C@H]1C [syzx-131]"
unit_annotation = "ug/mi"
recorded_result = 0.25


---

tested on: Haemophilus parasuis; experiment: in vitro susceptibility, MIC by mini broth dilution; assay type: cell-based
measured property: MIC values, Haemophilus parasuis (ug/mi)

[[record]]
compound = "CCCN1C[C@H](C)[C@@H](O)[C@](C)(O)[C@@H](CC)OC(=O)[C@H](C)[C@@H](O[C@H]2C[C@@](C)(OC)[C@](O)(CNC3CCCC3)[C@H](C)O2)[C@H](C)[C@@H](O[C@@H]2O[C@H](C)C[C@H](N(C)C)[C@H]2O)[C@](C)(O)C[C@H]1C [syzx-130]"
target_desc = "Haemophilus parasuis"
measured_property = "MIC values, Haemophilus parasuis"
unit_annotation = "ug/mi"
recorded_result = 8

[[record]]
compound = "CCCN1C[C@H](C)[C@@H](O)[C@](C)(O)[C@@H](CC)OC(=O)[C@H](C)[C@@H](O[C@H]2C[C@@](C)(OC)[C@](O)(CNCC(C)C)[C@H](C)O2)[C@H](C)[C@@H](O[C@@H]2O[C@H](C)C[C@H](N(C)C)[C@H]2O)[C@](C)(O)C[C@H]1C [syzx-112]"
target_desc = "Haemophilus parasuis"
measured_property = "MIC values, Haemophilus parasuis"
unit_annotation = "ug/mi"
recorded_result = 0.25

[[record]]
compound = "CCCN1C[C@H](C)[C@@H](O)[C@](C)(O)[C@@H](CC)OC(=O)[C@H](C)[C@@H](O[C@H]2C[C@@](C)(OC)[C@](O)(CNN3CCOCC3)[C@H](C)O2)[C@H](C)[C@@H](O[C@@H]2O[C@H](C)C[C@H](N(C)C)[C@H]2O)[C@](C)(O)C[C@H]1C [syzx-148]"
target_desc = "Haemophilus parasuis"
measured_property = "MIC values, Haemophilus parasuis"
unit_annotation = "ug/mi"
recorded_result = 0.5

[[record]]
compound = "CCCN1C[C@H](C)[C@@H](O)[C@](C)(O)[C@@H](CC)OC(=O)[C@H](C)[C@@H](O[C@H]2C[C@@](C)(OC)[C@](O)(CNCCCN3CCOCC3)[C@H](C)O2)[C@H](C)[C@@H](O[C@@H]2O[C@H](C)C[C@H](N(C)C)[C@H]2O)[C@](C)(O)C[C@H]1C [syzx-188]"
target_desc = "Haemophilus parasuis"
measured_property = "MIC values, Haemophilus parasuis"
unit_annotation = "ug/mi"
recorded_result = 0.5


---

test system: Actinobacillus pleuropneumoniae CVCC262; assay: in vitro susceptibility, MIC by mini broth dilution; type: cell-based; conditions: strain CVCC262
Criterion: MIC values, Actinobacillus pleuropneumoniae CVCC262 strictly less than 0.5 ug/mi. Met: y. Not met: n.

[[record]]
compound = "CCCN1C[C@H](C)[C@@H](O)[C@](C)(O)[C@@H](CC)OC(=O)[C@H](C)[C@@H](O[C@H]2C[C@@](C)(OC)[C@](O)(CNCc3ccccc3F)[C@H](C)O2)[C@H](C)[C@@H](O[C@@H]2O[C@H](C)C[C@H](N(C)C)[C@H]2O)[C@](C)(O)C[C@H]1C [syzx-192]"
cat = "n"

[[record]]
compound = "CCCN1C[C@H](C)[C@@H](O)[C@](C)(O)[C@@H](CC)OC(=O)[C@H](C)[C@@H](O[C@H]2C[C@@](C)(OC)[C@](O)(Cn3ccnc3C)[C@H](C)O2)[C@H](C)[C@@H](O[C@@H]2O[C@H](C)C[C@H](N(C)C)[C@H]2O)[C@](C)(O)C[C@H]1C [syzx-238]"
cat = "n"

[[record]]
compound = "CC[C@H]1OC(=O)[C@H](C)[C@@H](O[C@H]2C[C@@](C)(OC)[C@](O)(CNc3ccnc(Cl)c3)[C@H](C)O2)[C@H](C)[C@@H](O[C@@H]2O[C@H](C)C[C@H](N(C)C)[C@H]2O)[C@](C)(O)C[C@@H](C)NC[C@H](C)[C@@H](O)[C@]1(C)O [syzx-38]"
cat = "n"

[[record]]
compound = "CCCN1C[C@H](C)[C@@H](O)[C@](C)(O)[C@@H](CC)OC(=O)[C@H](C)[C@@H](O[C@H]2C[C@@](C)(OC)[C@](O)(CNCc3ccc(Cl)cc3)[C@H](C)O2)[C@H](C)[C@@H](O[C@@H]2O[C@H](C)C[C@H](N(C)C)[C@H]2O)[C@](C)(O)C[C@H]1C [syzx-120]"
cat = "y"

[[record]]
compound = "CCCN1C[C@H](C)[C@@H](O)[C@](C)(O)[C@@H](CC)OC(=O)[C@H](C)[C@@H](O[C@H]2C[C@@](C)(OC)[C@](O)(CNCCCCl)[C@H](C)O2)[C@H](C)[C@@H](O[C@@H]2O[C@H](C)C[C@H](N(C)C)[C@H]2O)[C@](C)(O)C[C@H]1C [syzx-175]"
cat = "y"

[[record]]
compound = "CCCN1C[C@H](C)[C@@H](O)[C@](C)(O)[C@@H](CC)OC(=O)[C@H](C)[C@@H](O[C@H]2C[C@@](C)(OC)[C@](O)(CNCC3CCCCC3)[C@H](C)O2)[C@H](C)[C@@H](O[C@@H]2O[C@H](C)C[C@H](N(C)C)[C@H]2O)[C@](C)(O)C[C@H]1C [syzx-167]"
cat = "n"

